READOUT_KIND: melting point

INSERT INTO assay_data (molecule, readout_kind, value_measured) VALUES
  ('CC1(C)C=Cc2c(ccc3c2C(=O)C=C(O)C3=O)O1 [Compound 1]', 'melting point', '208 °C'),
  ('CC1(C)CCc2c(ccc3c2C(=O)C(Cl)=C(Cl)C3=O)O1', 'melting point', '158 to 160 °C'),
  ('Cc1ccc(S(=O)(=O)OC2=C(Br)C(=O)c3c(ccc4c3C=CC(C)(C)O4)C2=O)cc1', 'melting point', '167 to 168 °C'),
  ('Cc1ccc(S(=O)(=O)OC2=C(Br)C(=O)c3ccc4c(c3C2=O)C=CC(C)(C)O4)cc1', 'melting point', '181.5 to 184 °C'),
  ('CC1(C)CCc2c(ccc3c2C(=O)C=C(O)C3=O)O1 [Compound 2]', 'melting point', '183.5 to 187 °C'),
  ('Cc1ccc(S(=O)(=O)OC2=C(Br)C(=O)c3ccc4c(c3C2=O)CCC(C)(C)O4)cc1', 'melting point', '168 to 169.5 °C'),
  ('CC1(C)CCc2c(ccc3c2C(=O)C(Br)=C(O)C3=O)O1 [Compound 5]', 'melting point', '213 to 216 °C'),
  ('Cc1ccc(S(=O)(=O)OC2=C(Br)C(=O)c3c(ccc4c3CCC(C)(C)O4)C2=O)cc1', 'melting point', '109 to 115 °C');
